- study.target: Glucose transporter (Leishmania mexicana) (UniProt O61059)
- assay.procedure: ST_JUDE_LEISH: Cytotoxicity at 2uM final concentration against transgenic Leishmania Mexicana promastigotes LmGT2 that are glucose transport deficient and complemented with the L. Mexicana glucose transporter 2. Activity is measured by DNA content using SYBR green in vitro
- Assay type: functional
metric: inhibition

Would you please look over these solved cases?
Noted for c1ccc(-c2n[nH]cc2Nc2ccnc3ccccc23)nc1 : its inhibition reads 3.97%

Noted for COc1cccc(Nc2nc(C)cc(Nc3cccc(C#N)c3)n2)c1 : its inhibition reads 4.27%

Noted for Cc1cc(N/N=C/c2cccc([N+](=O)[O-])c2)c2cc(F)ccc2n1 : its inhibition reads 0.14%

Continuing:
Noted for N#Cc1cccc(Nc2nccc(NCC(O)c3ccccc3C(F)(F)F)n2)c1 (stereo unspecified) : its inhibition reads 3.83%

Noted for CN(C)C(CNC(=O)c1cc(-c2ccncc2)c(-c2ccc(NC(=O)Nc3ccccc3)cc2)o1)c1ccccc1 (stereo unspecified) : its inhibition reads -0.82%

Noted for CCOc1cc(CNCCCCCCNCc2cc(OCC)c(OCC)c3ccccc23)c2ccccc2c1OCC : its inhibition reads 103%

Noted for N=C(NCC1CC1c1ccccc1)c1cccc(C(=N)NCC2CC2c2ccccc2)n1 (stereo unspecified) : its inhibition reads 6.3%
